experiment: Single escalating dose IV infusion pharmacokinetics in healthy volunteers (noncompartmental); assay type: in vivo, human; settings: both, human, plasma, intravenous, […]^2, Cohort 6 + 7, […]^2, N = 18; Geo. Mean; read-out: t1/2 (converted)
outcome.measure: half-life (h)
Record the value in h, omitting the unit from your answer.

Prompt line: Entry under review: CN1CCN(c2ccc(Nc3ncc4cc5n(c4n3)C3(CCCCC3)CNC5=O)nc2)CC1 . Reported half-life?
Response line: 14.5

----------
test: Single escalating dose IV infusion pharmacokinetics in healthy volunteers (noncompartmental); format: in vivo, human; settings: both sexes, human, plasma, iv, 48 mg/m^2, Compound 1 Concentration, Cohort 4, 48 mg/m^2 IV; Time 6.50 h; r7-9=Subjects 1-3,r11=Mean,r13=Min,r14=Median,r15=Max,r17=Geometric Mean
outcome.measure: concentration at 6.5 h (ng/mL)
Value expressed in ng/mL; do not type the unit.

Prompt line: Quick one: concentration at 6.5 h of CN1CCN(c2ccc(Nc3ncc4cc5n(c4n3)C3(CCCCC3)CNC5=O)nc2)CC1 ?
Response line: 17
